For each entry below, report its LD50 BMKC value.
Test system: BMKC
Test: Anti-cancer assay, MTT, LD50
Format: cell-based
Details: BMKC cloned melanoma line, 24 hours with peptide
No end group written: not given here.

Q: Param item = FAKLLAKLAKKL-NH2 [P49] ; retrieve measured LD50 BMKC.
Ans: 115 µg/mL

Q: Okay, and FAKLLAKLAKKVL-NH2 [P124] ?
Ans: 10 µg/mL

Q: Okay, and FALALKKALKALKKAL-NH2 [P34] ?
Ans: 53 µg/mL

Q: Okay, and FAKIIAKIAKIAKKIL-NH2 [P139] ?
Ans: 525 µg/mL

Q: Okay, and FALALKALKKAL-NH2 [P144, FALALKALKKAL-NH2] ?
Ans: 250 µg/mL

Q: Okay, and FALLKL-NH2 [P168, FALLKL-NH2] ?
Ans: 590 µg/mL

Q: Okay, and GIGKFLHAAKKFAKAFVAEIMNS-NH2 [P300, reference compound] ?
Ans: 130 µg/mL

Q: Okay, and FALALKALKKLKKALKKAL-NH2 [P27] ?
Ans: 44 µg/mL

Q: Okay, and FAKKLAKKAKLAKKL-NH2 [P77] ?
Ans: 125 µg/mL

Q: Okay, and FALAKLAKKAKAKLKKALKAL-NH2 [P26] ?
Ans: 94 µg/mL
